- method_summary: cn = amount concentration of the nth substance listed, in mol/dm3
- measurement_setup: 293.15 K; 101 kPa; Liquid; c1 = 0.2
measurement_name: viscosity (mPa·s)
# value in mPa·s; strip the unit string

Q) Fill blank: measured viscosity of the molecule OC[C@@H](O)[C@@H](O)CO [meso-1,2,3,4-butanetetrol] + O is ____.
A) 1.065

Q) Given the molecule OC[C@@H](O)[C@H](O)[C@@H](O)CO [xylitol] + O , what is its reported viscosity?
A) 1.089

Q) GET /values?readout=viscosity&item= OC[C@@H](O)[C@@H](O)[C@H](O)[C@H](O)CO [mannitol] + O
A) 1.143

Q) Dear colleague, I am looking for the recorded viscosity of the following molecule: OC[C@@H](O)[C@@H](O[C@H]1O[C@H](CO)[C@@H](O)[C@H](O)[C@H]1O)[C@H](O)[C@@H](O)CO [4-O-α-D-glucopyranosyl-D-glucitol] + O
A) 1.381

Q) Request the reported viscosity associated with OC[C@@H](O)[C@@H](O)[C@H](O)[C@@H](O)CO [D-sorbitol] + O
A) 1.113
